// reported logP per item
Could you keep your reply to the number by itself?

{"columns": ["COMPOUND", "PARAMETER MEASURED", "REPORTED MEASUREMENT"],
 "data": [
  ["CC(=O)OC(c1ccc(Cl)c(Cl)c1)C(Cl)(Cl)Cl (centres undefined)", "logP", 4.92],
  ["CC1(C)C(/C=C(\\Cl)C(F)(F)F)C1C(=O)OC(C#N)c1cccc(Oc2ccccc2)c1 (centres undefined)", "logP", 6.02],
  ["C#CCc1ccc(COC(=O)C2C(C=C(C)C)C2(C)C)o1 (centres undefined)", "logP", 6.67]
]}

Below: the item to evaluate.
**Query** # lookup: logP of COCc1ccc(COC(=O)C2C(C=C(C)C)C2(C)C)cc1 (centres undefined)
**Result** 4.5

###

Catalogue of compounds with associated logP

**Query** Which logP reading was recorded for the compound NS(=O)(=O)c1nnc(-c2ccccc2Cl)s1 ?
**Result** 1.43

**Query** Requested field: logP. Item: NS(=O)(=O)c1nnc(NS(=O)(=O)c2ccccc2)s1
**Result** 0.22

###

# PROTOCOL: method code SF-AS, from DOI: 10.1021/jm00291a017, PMID: 5140011
PARAMETER MEASURED: logP
Respond numerically, and do not add a unit to the figure.

// solved cases for logP follow
{"columns": ["CPD SMILES", "PARAMETER MEASURED", "REPORTED MEASUREMENT"],
 "data": [
  ["S=C1CCCCCCN1", "logP", 1],
  ["S=C1CCCCN1", "logP", 0.13],
  ["S=C1CCCCCN1", "logP", 0.75]
]}

**Query** Which logP reading was recorded for the compound S=C1CCCCCCCN1 ?
**Result** 1.44

###

# PROTOCOL: method code SF-AS, from Zsuzsa, H.; Nora, K. (1979). Study on the partition coefficient of acetanilides. Nehezvegyp. Kut. Intez. Kozl., 8, 139-146.
PARAMETER MEASURED: logP
Form rule: numeric answer, no unit written next to it.

{"columns": ["CPD SMILES", "PARAMETER MEASURED", "REPORTED MEASUREMENT"],
 "data": [
  ["CC(=O)N(CC(=O)Nc1ccccc1)c1ccccc1", "logP", 2.01]
]}

# context switch: different molecule, same logP
**Query** // logP lookup, key: O=C(CN(C(=O)C(Cl)Cl)c1ccccc1)Nc1ccccc1
**Result** 2.96

###

Hi, to clarify the labels: y covers logP from 2 upward, n covers anything below 2.

Solved cases (4 shown):
{"columns": ["MOLECULE", "QUALITATIVE LABEL"],
 "data": [
  ["CC(C(=O)O)c1ccc(N2CC=CC2)c(Cl)c1 (stereo not given)", "y"],
  ["Nc1ccc(-c2ccc(N)cc2)cc1", "n"],
  ["CN(C)Cc1ccccc1", "n"],
  ["CCN(CC)CC", "n"]
]}

Could you now look at the following molecule, please?
**Query** Record CCn1ccc(NS(=O)(=O)c2ccc(N)cc2)nc1=O ; criterion: logP no lower than 2. Met?
**Result** n

###

# PROTOCOL: method code SF-HPLC, from Yu, G.; Xu, X. (1993). Determination of the 1-octanol/water partition coefficient of nitro-PAHs. Huanjing Huaxue, 12(4)299-303.
PARAMETER MEASURED: logP
Response field accepts a number only; no unit should be typed.

{"columns": ["CPD SMILES", "logP"],
 "data": [
  ["O=[N+]([O-])c1ccc(-c2ccc([N+](=O)[O-])cc2)cc1", 3.2]
]}

**Query** If you can, please state the reported logP value of O=[N+]([O-])c1ccc2c(c1)Cc1ccccc1-2 .
**Result** 3.99

###

PARAMETER MEASURED: logP

{"columns": ["MOLECULE", "REPORTED MEASUREMENT"],
 "data": [
  ["CC(=O)OC(CNC(C)C)COc1cccc2ccccc12 (stereo not drawn)", 4.34],
  ["CC(C)NCC(COc1cccc2ccccc12)OC(=O)c1ccc([N+](=O)[O-])cc1 (stereo not drawn)", 5.97]
]}

**Query** logP lookup needed for CC=CC(=O)OC(CNC(C)C)COc1cccc2ccccc12 (stereo not drawn) , thanks.
**Result** 3.78

###

PARAMETER MEASURED: logP
# answer = number (no unit)

**Query** // logP lookup, key: CC1(C)NC(=O)N(c2ccc([N+](=O)[O-])c(C(F)(F)F)c2)C1=O
**Result** 2.31

###

# PROTOCOL: from Sparatore, F.; Grieco, C.; Silipo, C.; Vittoria, A. (1979). Use of regression analysis to correlate auxin activity with chemical physical and structural properties of benzotriazole derivatives. III. …
# TEST PARAMETERS: pH 5.6
The following compounds are shown together with reported logD values.
# print the numeric value only

Worked set:
{"columns": ["CPD SMILES", "PARAMETER MEASURED", "REPORTED MEASUREMENT"],
 "data": [
  ["OCCCCn1nnc2ccccc21", "logD", 1.03],
  ["OCCCCCCn1nnc2ccccc21", "logD", 1.71],
  ["OCCCCn1nc2ccccc2n1", "logD", 1.57]
]}

Kindly review the next compound as well.
**Query** Form field: reported logD of OCCCCCn1nc2ccccc2n1
**Result** 1.93

###

Recorded logP for the following compounds

// solved cases for logP follow
{"columns": ["CPD SMILES", "REPORTED MEASUREMENT"],
 "data": [
  ["c1ccc2ccccc2c1", 3.43],
  ["CCOP(=O)(OCC)O/C(=C/Cl)c1ccc(Cl)cc1Cl", 3.84],
  ["Nc1ccc(F)c(Cl)c1", 1.95]
]}

The record that follows has no logP shown yet.
**Query** So what does the record say about logP for Cc1cc(C)cc(O)c1 ?
**Result** 2.54

###

The following molecules are shown together with reported logP values.
Answer as a number with no unit attached.

{"columns": ["CPD SMILES", "logP"],
 "data": [
  ["O=c1[nH]c2ccccc2n1C1CCNCC1", 1.14],
  ["O=c1[nH]c2ccccc2n1C1=CCNCC1", 0.85]
]}

From here, focus on the item given below.
**Query** State the recorded logP for this entry: O=c1[nH]c2cc(Cl)ccc2n1C1CCNCC1
**Result** 1.59

###

PARAMETER MEASURED: logP
Write no unit; give the number alone.

**Query** Reported logP, molecule COc1ccc([N+](=O)[O-])c(C)c1 : ____
**Result** 2.38

###

PARAMETER MEASURED: logP
Give your answer as a number; write no unit.

**Query** Tell me the measured logP of Cc1nccn1C , please.
**Result** -0.04

###

# PROTOCOL: method code SF, from DOI: 10.1021/jm00378a018, PMID: 6389865
# TEST PARAMETERS: pH 7.0
Attribute: logD

For orientation, consider the following solved cases.
{"columns": ["COMPOUND", "logD"],
 "data": [
  ["CC(=O)Nc1nc(NCC(O)CO)c(Cl)nc1[N+](=O)[O-] (stereo not drawn)", 0],
  ["Nc1nc(NCC(O)CO)c(Cl)nc1[N+](=O)[O-] (stereo not drawn)", -0.22]
]}

Continue with the compound presented below.
**Query** GET /values?readout=logD&item= CC(=O)Nc1nc(N2CCN(C)CC2)c(Cl)nc1[N+](=O)[O-]
**Result** 0.5

###

# PROTOCOL: method code SF-AS, from DOI: 10.1148/radiology.194.3.7862981, PMID: 7862981
PARAMETER MEASURED: logP

**Query** Fill blank: measured logP of the compound O=[N+]([O-])c1nccn1C[C@H](O)[C@H](O)CF is ____.
**Result** -0.77

###

# PROTOCOL: method code SF-ILT, from DOI: 10.1002/ardp.19763091008, PMID: 1008678
PARAMETER MEASURED: logP
Just the number, please.

{"columns": ["COMPOUND", "PARAMETER MEASURED", "REPORTED MEASUREMENT"],
 "data": [
  ["CCN(CC)C(=O)C1C2CC3C(OC(=O)C31)C2O (configuration not stated)", "logP", 0.15]
]}

**Query** Which logP reading was recorded for the compound CCN(CC)C(=O)[C@@H]1[C@@H](C(=O)N(CC)CC)[C@H]2C=C[C@@H]1C2 ?
**Result** 1.16

###

# PROTOCOL: method code SF-AS, from Jha, T.; Debnath, A.; Mazumdar, A.; Sengupta, C.; De, A. (1986). Hansch analysis of antineoplastic agents, 5-N-substituted-2-p-substituted benzenesulfonyl-L-glutamines. Ind. J. Chem., Sect. B, …
Could you label it MET if measured logP is 0.3 or higher, and NOT MET otherwise?

Worked examples follow.
{"columns": ["COMPOUND", "QUALITATIVE LABEL"],
 "data": [
  ["CCNC(=O)CCC(NS(=O)(=O)c1ccccc1)C(=O)O (stereo not given)", "MET"],
  ["Cc1ccc(S(=O)(=O)NC(CCC(=O)NC2CCCCC2)C(=O)O)cc1 (stereo not given)", "MET"],
  ["CCCCCNC(=O)CCC(NS(=O)(=O)c1ccccc1)C(=O)O (stereo not given)", "NOT MET"]
]}

**Query** Decide: is the reported value of logP for CCCCCCNC(=O)CCC(NS(=O)(=O)c1ccc(C)cc1)C(=O)O (stereo not given) equal to or greater than 0.3?
**Result** MET

**Query** Is the recorded value of logP equal to or greater than 0.3 for this compound? CCCNC(=O)CCC(NS(=O)(=O)c1ccccc1)C(=O)O (stereo not given)
**Result** NOT MET
